Target: UniProt P42684
Sequence (P42684 whole entry, looked up): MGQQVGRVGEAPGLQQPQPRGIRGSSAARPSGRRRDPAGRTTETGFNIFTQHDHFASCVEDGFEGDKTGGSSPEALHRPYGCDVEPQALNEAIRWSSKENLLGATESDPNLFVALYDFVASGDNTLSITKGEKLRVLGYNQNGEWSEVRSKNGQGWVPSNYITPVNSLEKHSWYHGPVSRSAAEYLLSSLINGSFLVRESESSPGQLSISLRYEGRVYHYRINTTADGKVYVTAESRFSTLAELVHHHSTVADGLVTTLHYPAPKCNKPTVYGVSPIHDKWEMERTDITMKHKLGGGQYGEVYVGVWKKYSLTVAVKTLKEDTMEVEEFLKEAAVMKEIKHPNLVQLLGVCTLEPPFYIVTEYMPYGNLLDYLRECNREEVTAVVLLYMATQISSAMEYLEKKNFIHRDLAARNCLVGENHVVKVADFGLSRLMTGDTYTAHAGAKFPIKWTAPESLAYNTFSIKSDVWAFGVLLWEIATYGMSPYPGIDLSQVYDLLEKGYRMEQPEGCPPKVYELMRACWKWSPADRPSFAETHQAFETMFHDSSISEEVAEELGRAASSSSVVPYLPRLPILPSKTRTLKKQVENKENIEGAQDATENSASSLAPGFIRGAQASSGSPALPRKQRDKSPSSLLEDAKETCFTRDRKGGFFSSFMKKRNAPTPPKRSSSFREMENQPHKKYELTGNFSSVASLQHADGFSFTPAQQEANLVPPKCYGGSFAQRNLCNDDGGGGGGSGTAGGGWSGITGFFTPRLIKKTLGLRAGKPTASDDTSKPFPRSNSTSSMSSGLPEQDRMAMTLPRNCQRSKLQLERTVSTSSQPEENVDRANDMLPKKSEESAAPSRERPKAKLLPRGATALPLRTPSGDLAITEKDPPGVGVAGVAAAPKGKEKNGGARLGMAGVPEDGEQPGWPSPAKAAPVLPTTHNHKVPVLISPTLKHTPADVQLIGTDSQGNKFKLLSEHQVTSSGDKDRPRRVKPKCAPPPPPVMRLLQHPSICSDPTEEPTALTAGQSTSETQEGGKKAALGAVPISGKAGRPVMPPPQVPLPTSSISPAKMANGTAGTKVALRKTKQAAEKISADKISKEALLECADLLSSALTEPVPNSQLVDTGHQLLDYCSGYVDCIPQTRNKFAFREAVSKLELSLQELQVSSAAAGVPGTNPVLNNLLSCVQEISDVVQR
Assay: KINOMEscan competition binding
Conditions: compound 10.0 µM
reportedProperty: kinase still bound, per cent of control (%)
Provide only the numeric value, understood in %.

Example compounds with recorded kinase still bound, per cent of control:
# smilesRecord, kinase still bound, per cent of control [%]
rows = [
    ("CN1CCN(c2ccc(C(=O)Nc3ncc4c(n3)N(C)c3ccccc3C(=O)N4C)cc2)CC1", 100),
    ("CN1C(=O)c2ccccc2N(C)c2nc(Nc3ccc(N4CCC(O)CC4)cc3)ncc21", 33),
    ("COc1cc(N2CCN(C)CC2)ccc1Nc1ncc2c(n1)N(C)c1sccc1C(=O)N2C", 92),
    ("O=C1NC(=O)/C(=C/c2c[nH]c(=O)c(-c3ccc(N4CCNCC4)nc3)c2)S1", 78),
    ("CN1C(=O)c2ccccc2N(C)c2nc(NS(=O)(=O)c3ccc(N)cc3)ncc21", 100),
]

Lab note: "COc1cc(N2CCC(O)CC2)ccc1Nc1ncc2c(n1)N1CCc3cccc(c31)C(=O)N2C" gave kinase still bound, per cent of control of 96

###

Target: DAPK2 (human) (UniProt Q9UIK4)
Sequence (Q9UIK4 whole entry, looked up): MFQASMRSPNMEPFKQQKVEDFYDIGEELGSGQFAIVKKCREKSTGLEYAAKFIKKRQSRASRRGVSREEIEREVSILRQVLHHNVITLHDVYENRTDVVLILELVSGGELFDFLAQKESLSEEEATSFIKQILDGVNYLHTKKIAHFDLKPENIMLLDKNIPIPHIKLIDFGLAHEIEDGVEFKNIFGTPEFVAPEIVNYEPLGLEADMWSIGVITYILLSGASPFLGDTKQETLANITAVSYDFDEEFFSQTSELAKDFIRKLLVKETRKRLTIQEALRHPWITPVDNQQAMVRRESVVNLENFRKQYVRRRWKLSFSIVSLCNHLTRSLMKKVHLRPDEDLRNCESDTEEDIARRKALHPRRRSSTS
Test: KINOMEscan competition binding
Conditions: compound 10.0 µM
Decide using kinase still bound, per cent of control alone. Strictly below 9%: Criterion met. Equal to or above 9%: Criterion not met.

Completed entries (count: 4):
# molecule, className
rows = [
    ("N=C1NC(=O)/C(=C/c2ccc(-c3ccc4c(C(=O)Nc5ccc(N6CCNCC6)cc5)cccc4c3)o2)S1", "Criterion not met"),
    ("CN1CCN(c2ccc(C(=O)Nc3ncc4c(n3)N(C)c3ccccc3C(=O)N4C)cc2)CC1", "Criterion not met"),
    ("O=C1NC(=S)S/C1=C\\c1ccc(-c2cccc3ccccc23)o1", "Criterion not met"),
    ("Cc1cn(-c2cc(NC(=O)c3cccc4cc(-c5ccc(/C=C6\\SC(=N)NC6=O)o5)ccc34)cc(C(F)(F)F)c2)cn1", "Criterion met"),
]

Query string: Please indicate whether the reported kinase still bound, per cent of control of "CN1C(=O)[C@H]2CCC[C@H]2N(C2CCCC2)c2nc(Nc3ccc(C(N)=O)cc3)ncc21" is strictly below 9%.
Result string: Criterion met

Query string: Please indicate whether the reported kinase still bound, per cent of control of "CS(=O)(=O)Nc1ccc(-c2cc(/C=C3\SC(=N)NC3=O)c[nH]c2=O)cc1" is strictly below 9%.
Result string: Criterion met

Query string: Please indicate whether the reported kinase still bound, per cent of control of "CS(=O)(=O)Nc1ccc(-c2ncc(/C=C3\SC(=N)NC3=O)s2)cc1" is strictly below 9%.
Result string: Criterion met

Query string: Please indicate whether the reported kinase still bound, per cent of control of "N=C1NC(=O)/C(=C/c2ccc(-c3ccc(F)cc3)o2)S1" is strictly below 9%.
Result string: Criterion met

Query string: Please indicate whether the reported kinase still bound, per cent of control of "CC(=O)Nc1ccc(-c2ccc(/C=C3\SC(=N)NC3=O)o2)c(O)c1" is strictly below 9%.
Result string: Criterion not met

Query string: Please indicate whether the reported kinase still bound, per cent of control of COc1cc(C(=O)NC2CCN(C)CC2)ccc1Nc1ncc2c(n1)N(C1CCCC1)CC(C)C(=O)N2C (configuration not stated) is strictly below 9%.
Result string: Criterion not met

Query string: Please indicate whether the reported kinase still bound, per cent of control of "COc1cc(N2CCC(O)CC2)ccc1Nc1ncc2c(n1)N1CCc3cccc(c31)C(=O)N2C" is strictly below 9%.
Result string: Criterion not met

Query string: Please indicate whether the reported kinase still bound, per cent of control of "CN1C(=O)c2ccccc2N(C)c2nc(NS(=O)(=O)c3ccc(N)cc3)ncc21" is strictly below 9%.
Result string: Criterion not met

Query string: Please indicate whether the reported kinase still bound, per cent of control of "N=C1NC(=O)/C(=C/c2ccc(-c3cnc4ccccc4c3)o2)S1" is strictly below 9%.
Result string: Criterion not met

Query string: Please indicate whether the reported kinase still bound, per cent of control of "N=C1NC(=O)/C(=C/c2ccc(-c3ccc(Cl)cc3)o2)S1" is strictly below 9%.
Result string: Criterion not met

Query string: Please indicate whether the reported kinase still bound, per cent of control of "N=C1NC(=O)/C(=C/c2c[nH]c(=O)c(-c3ccc(S(N)(=O)=O)cc3)c2)S1" is strictly below 9%.
Result string: Criterion met

Query string: Please indicate whether the reported kinase still bound, per cent of control of "COc1cc(N2CCN(C)CC2)ccc1Nc1ncc2c(n1)N(C)c1sccc1C(=O)N2C" is strictly below 9%.
Result string: Criterion not met

Recorded values, source the kinase profiling compilation of Christmann-Franck et al. (2016).
